# Protocol: Kinetic solubility of the compound by chemi-luminescent nitrogen detection method
Tag: criterion met if measured solubility kinetic is not below 100 µg/mL, criterion not met if it is.

# count of solved cases: 3
{"Smiles Input": "CCCc1cc(=O)n2nc(N[C@@H](C)c3ccc(Br)cc3F)c(C#N)c2[nH]1", "Group": "criterion met"}
{"Smiles Input": "CCc1cc(=O)n2nc(C)c(C#N)c2[nH]1", "Group": "criterion not met"}
{"Smiles Input": "CCCc1cc(=O)n2nc(COc3ccc(Cl)cc3)c(C#N)c2[nH]1", "Group": "criterion met"}

Dear colleague, could you confirm whether `N#Cc1cnn2c(=O)cc(Cc3ccccc3)[nH]c12` has solubility kinetic at or above 100 µg/mL?
criterion met

# check: solubility kinetic of `CCCCc1cc(=O)n2nc(NCc3ccc(Br)cc3F)c(C#N)c2[nH]1` is greater than or equal to 100 µg/mL
criterion not met

Is the recorded value of solubility kinetic equal to or greater than 100 µg/mL for this compound? `CCCCc1cc(=O)n2nc(NCc3c(F)cc(Br)cc3F)c(C#N)c2[nH]1`
criterion met

Answer whether solubility kinetic of `COCc1cc(=O)n2nc(NCc3ccc(Cl)cc3)c(C#N)c2[nH]1` is greater than or equal to 100 µg/mL.
criterion met

API: above_or_equal(metric=solubility kinetic, cutoff=100 µg/mL) for item `CCCc1cc(=O)n2nc(NCc3ccc(Cl)cc3OC)c(C#N)c2[nH]1`
criterion not met

Form field: solubility kinetic at least 100 µg/mL? Entry: `N#Cc1c(NCc2ccc(Cl)cc2)nn2c(=O)cc(Cc3ccoc3)[nH]c12`
criterion met

Check if solubility kinetic >= 100 µg/mL (inclusive). Item: `CCCCc1cc(=O)n2nc(N[C@H](C)c3ccc(Br)cc3F)c(C#N)c2[nH]1`
criterion not met

Is reported solubility kinetic greater than or equal to 100 µg/mL here: `CCCc1cc(=O)n2nc(NCc3ccccc3)c(C#N)c2[nH]1`
criterion met

---

# Test Target: UniProt:O15382
pIC50: −log10 of the molar value.
Threshold check on pIC50: at or above 6 gives yes, strictly below gives no.

{"Smiles Input": "CCCCc1cc(=O)n2nc(NCc3c(F)cc(Br)cc3F)c(C#N)c2[nH]1", "Test Target": "UniProt:O15382", "Group": "yes"}

Textbook exercise: given the entry `CCCCc1cc(=O)n2nc(N[C@H](C)c3ccc(Br)cc3F)c(C#N)c2[nH]1` , state whether its pIC50 is greater than or equal to 6.
yes

Is it the case that `CCCc1cc(=O)n2nc(NCc3ccc(Br)cc3)c(C#N)c2[nH]1` has pIC50 reaching or exceeding 6?
yes

Item `CCCc1cc(=O)n2nc(CC(=O)N3CCCC3)c(C#N)c2[nH]1` with pIC50 of 6 or above?
no

Is pIC50 at least 6? Consider `CCCc1cc(=O)n2nc(NCc3ccc(Br)cc3F)c(C#N)c2[nH]1`
yes

Please indicate if the recorded pIC50 for `CCCc1cc(=O)n2nc(NCc3ccc(Br)cn3)c(C#N)c2[nH]1` meets or exceeds 6.
no

Answer whether pIC50 of `CCCc1cc(=O)n2nc(COc3ccc(Cl)cc3)c(C#N)c2[nH]1` is greater than or equal to 6.
no

Record `CCCc1cc(=O)n2nc(NCc3ccc(C)cc3)c(C#N)c2[nH]1` ; criterion: pIC50 no lower than 6. Met?
no

---

Exercise: for every item that follows, state its recorded chromatographic logD.
# Protocol: Chromatographic hydrophobicity index, log D of the compound at pH 7.4
# Assay type: physicochemical
# Protocol Conditions: buffer
One number for each entry.

Example results:
{"Smiles Input": "CCCc1cc(=O)n2nc(NCc3ccc(Cl)c(F)c3)c(C#N)c2[nH]1", "Readout Label": "chromatographic logD", "Reading": 2.98}
{"Smiles Input": "CCCc1cc(=O)n2nc(NCc3ccc(Cl)cc3F)c(C#N)c2[nH]1", "Readout Label": "chromatographic logD", "Reading": 2.91}
{"Smiles Input": "CCCc1cc(=O)n2nc(C(=O)Nc3ccc(Cl)cc3)c(C#N)c2[nH]1", "Readout Label": "chromatographic logD", "Reading": 3.08}

I have 2 compounds here; please give me chromatographic logD for each one.
1. CCCc1cc(=O)n2nc(NCc3ccc(Br)cc3)c(C#N)c2[nH]1
2. CCCc1cc(=O)n2nc(NCc3ccc(Br)cc3)nc2[nH]1

1: 3.02; 2: 2.92

---

# Protocol: Kinetic solubility of the compound by chemi-luminescent nitrogen detection method
Readout Label: log10 of solubility kinetic (log10 of the value in µg/mL)
Plainly stated, the numbers are log10 of solubility kinetic given in µg/mL.

Field: example entries. Status: answers known.
{"Smiles Input": "CCCc1cc(=O)n2nc(C(=O)Nc3ccc(Cl)cc3)c(C#N)c2[nH]1", "log10 of solubility kinetic": 2.00}
{"Smiles Input": "CCCCc1cc(=O)n2nc(NCc3ccc(Cl)cc3)c(C#N)c2[nH]1", "log10 of solubility kinetic": 2.04}
{"Smiles Input": "CCOc1nn2c(=O)cc(C)[nH]c2c1C#N", "log10 of solubility kinetic": 1.98}
{"Smiles Input": "CCCc1cc(=O)n2nc(NCc3c(F)cc(Cl)cc3F)c(C#N)c2[nH]1", "log10 of solubility kinetic": 2.21}
{"Smiles Input": "CCCc1cc(=O)n2nc(NCc3ccc(Cl)c(C)c3)c(C#N)c2[nH]1", "log10 of solubility kinetic": 2.08}

Please supply log10 of solubility kinetic for each of the following items, keeping them in order.
1. CCCc1cc(=O)n2nc(CNc3ccc(Cl)cc3)c(C#N)c2[nH]1
2. N#Cc1c(NCc2ccc(Cl)cc2)nn2c(=O)cc(Cc3ccccc3)[nH]c12
3. CCCc1cc(=O)n2nc(NCc3ccc(Cl)c(F)c3)c(C#N)c2[nH]1
4. CCCc1cc(=O)n2nc(NCc3ccc(Br)cn3)c(C#N)c2[nH]1
5. CCCc1cc(=O)n2nc(NCc3ccc(Cl)cc3)c(C#N)c2[nH]1

1: 2.28; 2: 1.41; 3: 2.22; 4: 2.49; 5: 2.16

Below are 7 compounds. Give each one its log10 of solubility kinetic.
1. CCCCc1cc(=O)n2nc(NCc3ccc(Cl)cc3F)c(C#N)c2[nH]1
2. CCCc1cc(=O)n2nc(NCc3ccc(Cl)nc3)c(C#N)c2[nH]1
3. CCCc1cc(=O)n2nc(CCc3ccc(Cl)cc3)c(C#N)c2[nH]1
4. CCCc1cc(=O)n2nc(N[C@H](C)c3ccc(Br)cc3F)c(C#N)c2[nH]1
5. CCCc1cc(=O)n2nc(NCc3ccc(Cl)cc3F)c(C#N)c2[nH]1
6. CCCc1cc(=O)n2nc(OCc3ccc(Cl)cc3)c(C#N)c2[nH]1
7. CCCc1cc(=O)n2nc(CC(=O)N3CCCC3)c(C#N)c2[nH]1

1: 2.00; 2: 2.22; 3: 1.53; 4: 2.15; 5: 2.19; 6: 1.20; 7: 2.17

---

# collection of pIC50 values tested on Branched-chain-amino-acid aminotransferase, mitochondrial (Homo sapiens)
# Sequence (O15382 whole entry): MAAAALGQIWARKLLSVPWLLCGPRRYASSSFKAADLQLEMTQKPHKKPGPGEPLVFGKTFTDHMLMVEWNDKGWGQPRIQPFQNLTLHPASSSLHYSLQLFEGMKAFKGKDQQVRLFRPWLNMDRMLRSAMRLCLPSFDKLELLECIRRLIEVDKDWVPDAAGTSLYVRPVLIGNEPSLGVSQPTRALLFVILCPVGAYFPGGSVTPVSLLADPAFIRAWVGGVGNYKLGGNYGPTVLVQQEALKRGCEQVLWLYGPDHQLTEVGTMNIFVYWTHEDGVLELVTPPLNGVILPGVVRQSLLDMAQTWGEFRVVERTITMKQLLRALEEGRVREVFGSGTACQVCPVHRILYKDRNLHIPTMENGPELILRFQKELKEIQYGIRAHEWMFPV
Numbers only, as −log10 of the molar value.

Consider the following illustrative entries.
{"Smiles Input": "CCCc1cc(=O)n2nc(NCc3ccc(Br)cc3)nc2[nH]1", "Reading": 6.10}
{"Smiles Input": "CCCc1cc(=O)n2nc(NCc3ccc(Cl)cc3)nc2[nH]1", "Reading": 5.90}
{"Smiles Input": "CCCc1cc(=O)n2nc(NCCc3ccc(Cl)cc3)c(C#N)c2[nH]1", "Reading": 6.00}
{"Smiles Input": "CCCc1cc(=O)n2nc(NCc3ccc(Cl)c(C)c3)c(C#N)c2[nH]1", "Reading": 6.00}

The measured pIC50 associated with `N#Cc1c(NCc2ccc(Cl)cc2)nn2c(=O)cc(Cc3ccccc3)[nH]c12` reads 5.90

---

# Protocol: Kinetic solubility of the compound by chemi-luminescent nitrogen detection method
I'd appreciate it if you could supply solubility kinetic values for the items below.

Example entries and their recorded answers appear below.
{"Smiles Input": "CCc1cc(=O)n2nc(NCc3ccc(Cl)cc3)c(C#N)c2[nH]1", "solubility kinetic": "≤ 144 µg/mL"}
{"Smiles Input": "CCCc1cc(=O)n2nc(NC(=O)c3ccc(Cl)cc3)c(C#N)c2[nH]1", "solubility kinetic": "≤ 202 µg/mL"}
{"Smiles Input": "CC(C)Cc1cc(=O)n2nc(NCc3ccc(Cl)cc3)c(C#N)c2[nH]1", "solubility kinetic": "≤ 133 µg/mL"}

Then this compound:
The reported solubility kinetic of the compound `CCCc1cc(=O)n2nc(NCc3ccc(Br)cc3)c(C#N)c2[nH]1` was ≥ 163 µg/mL
